The measurements presented in this section are drawn from the supplement of paper PMC12024529.

Test system: HEK293 WT BDD-FVIII-Gluc
Experiment: secreted FVIII-Gluc luciferase Z-score vs DMSO control; higher = more FVIII-Gluc secretion
Conditions: 5 µM
Is secreted FVIII-Gluc luciferase Z-score at least -0.2? Then 1 (yes). If not, 0 (no).

Reference set, count: 3
[
  {
    "Molecule": "COc1cccc(-c2cc(=O)c3cc(O)ccc3o2)c1",
    "Group": "1 (yes)"
  },
  {
    "Molecule": "C[C@H]1O[C@@H](O[C@H]2[C@@H](O)C[C@H](O[C@H]3[C@@H](O)C[C@H](O[C@H]4CC[C@@]5(C)[C@H](CC[C@@H]6[C@@H]5C[C@@H](O)[C@]5(C)[C@@H](C7=CC(=O)OC7)CC[C@]65O)C4)O[C@@H]3C)O[C@@H]2C)C[C@H](O)[C@@H]1O",
    "Group": "0 (no)"
  },
  {
    "Molecule": "C[C@H]1[C@H](C)CC[C@]2(C(=O)O)CC[C@]3(C)C(=CC[C@@H]4[C@@]5(C)CC[C@H](O)C(C)(C)[C@@H]5CC[C@]43C)[C@H]12",
    "Group": "1 (yes)"
  }
]

Input line: Confirm if secreted FVIII-Gluc luciferase Z-score reported for the molecule O=c1cc[nH]c(=S)[nH]1 is -0.2 or above.
Output line: 1 (yes)

Input line: Next up: O=C1CC(c2ccc(O)cc2)Oc2cc(O)cc(O)c21 (centres undefined)
Output line: 0 (no)

Input line: Next up: Cc1cc(O)c2c(c1)C(=O)c1cccc(O)c1C2=O
Output line: 1 (yes)

Input line: Next up: CC(C)[C@@H]1CC[C@@H](C)C[C@H]1OC(=O)[C@@H](C)O
Output line: 1 (yes)

Input line: Next up: O=c1cc(-c2ccc(O)c(O)c2)oc2cc(OC3OC(CO)C(O)C(O)C3O)cc(O)c12 (centres undefined)
Output line: 1 (yes)

Input line: Next up: O=c1cc(-c2cccc(O)c2O)oc2ccccc12
Output line: 0 (no)

Input line: Next up: O=c1c(O)c(-c2ccc(O)cc2O)oc2cc(O)cc(O)c12
Output line: 1 (yes)

Input line: Next up: COc1cc2c(C)c3c4c(cc(OC)c(OC)c4c2cc1OC)CCN3C
Output line: 0 (no)

Input line: Next up: O=C(O)C1(O)CC(O)C(O)C(O)C1 (centres undefined)
Output line: 1 (yes)

Input line: Next up: C[C@@H]1O[C@@H](OC[C@H]2O[C@@H](Oc3c(-c4cccc(O)c4O)oc4cc(O)cc(O)c4c3=O)[C@H](O)[C@@H](O)[C@@H]2O)[C@H](O)[C@H](O)[C@H]1O
Output line: 1 (yes)

###

System: HEK293 WT BDD-FVIII-Gluc
Test: secreted FVIII-Gluc luciferase Z-score vs DMSO control; higher = more FVIII-Gluc secretion
Settings: 5 µM
Measured secreted FVIII-Gluc luciferase Z-score values are reported for all entries that follow.
Keep the answer to the number alone.

[
  {
    "Compound": "COc1ccc2oc(-c3ccccc3)c(OC)c(=O)c2c1",
    "Recorded Result": 0.232
  },
  {
    "Compound": "Cc1cc2c(C(C)C)c(O)c(O)c3c2c(c1-c1c(C)cc2c(C(C)C)c(O)c(O)c4c2c1OC4N)OC3N (centres undefined)",
    "Recorded Result": -0.0294
  }
]

Input line: Which measured secreted FVIII-Gluc luciferase Z-score value corresponds to COc1cc2cc3c4c(cc(OC)c(OC)c4c2cc1OC)CCN3C ?
Output line: 0.0768

Input line: Next up: Cc1ccc(C(=O)[C@@H]2[C@H]3C4COC(O4)C(=O)[C@@H]3[C@H]3C=Cc4ccccc4N32)cc1 (some centres undefined)
Output line: -0.368

Input line: Next up: CCOC(=O)CCC(=O)OC1C(OC2C(C)C(OC3CC(C)(OC)C(O)C(C)O3)C(C)C(=O)OC(CC)C(C)(O)C(O)C(C)C(=O)C(C)CC2(C)O)OC(C)CC1N(C)C (centres undefined)
Output line: 0.0842

Input line: Next up: COc1cc2oc(-c3ccccc3)cc(=O)c2cc1O
Output line: 0.564

Input line: Next up: C=C1CCC2C(C)(CC[C@@H](O)C2(C)C)C1COc1ccc2ccc(=O)oc2c1 (some centres undefined)
Output line: 0.344

Input line: Next up: OCC1(O)OC[C@H](O)[C@@H](O)[C@@H]1O (some centres undefined)
Output line: 0.437

Input line: Next up: CC(=O)[C@@H]1[C@H]2[C@H](C(=O)[C@H]3OC[C@@H]2O3)[C@H]2C=Cc3ccccc3N21
Output line: 0.187
